tested-on: Human complement C1s enzyme (Homo sapiens, UniProt P09871)
Construct: purified from human serum, Complement Technology, Inc; purchased Complement Technology, Inc; host or cells: human serum (plasma-derived natural protein)
Sequence (P09871 438-688 limits assumed): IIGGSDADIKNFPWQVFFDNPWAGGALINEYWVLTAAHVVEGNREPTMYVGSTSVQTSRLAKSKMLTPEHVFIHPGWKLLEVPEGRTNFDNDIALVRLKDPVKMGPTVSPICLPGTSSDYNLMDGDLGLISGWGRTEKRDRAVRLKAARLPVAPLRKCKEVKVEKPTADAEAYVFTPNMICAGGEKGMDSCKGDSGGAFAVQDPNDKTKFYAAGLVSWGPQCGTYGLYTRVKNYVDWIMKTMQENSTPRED
Sequence (P09871 16-437 partner limits assumed): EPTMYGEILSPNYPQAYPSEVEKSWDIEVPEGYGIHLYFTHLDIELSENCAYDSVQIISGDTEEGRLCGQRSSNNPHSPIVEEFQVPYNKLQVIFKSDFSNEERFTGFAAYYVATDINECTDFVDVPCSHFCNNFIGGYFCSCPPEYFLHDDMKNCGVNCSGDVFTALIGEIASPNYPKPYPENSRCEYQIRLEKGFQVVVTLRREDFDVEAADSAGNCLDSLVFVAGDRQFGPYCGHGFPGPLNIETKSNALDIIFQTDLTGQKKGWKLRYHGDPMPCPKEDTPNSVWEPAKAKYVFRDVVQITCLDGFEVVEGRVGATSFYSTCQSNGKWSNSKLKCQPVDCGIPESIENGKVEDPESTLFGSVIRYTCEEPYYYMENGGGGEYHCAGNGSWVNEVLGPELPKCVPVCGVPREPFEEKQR
method-notes: Human C1s Enzyme Assay
Format: biochemical
condition-parameters: Table 1; C1s purified from human serum, 1.16 nM; substrate Z-L-Lys-SBzl; read-out: C1s Protease Activity
value-kind: IC50

> print(dat)
                                   molecule                                 tested.on     test.result
1  C[C@@]12C[C@@H](C(=O)NCc3cc(C(=N)N)cs3)N(C(=O)CNC(=O)c3ccc(Oc4ccccc4)cc3)[C@@H]1C2 [Compound 8]  Human complement C1s enzyme (Homo sapiens, UniProt P09871)        < 100 nM
2  N=C(N)NCCC[C@H](NC(=O)[C@@H]1CC2(CN1C(=O)CNC(=O)c1ccc(Oc3ccccc3)cc1)OCCO2)C(N)=O [Compound 22]  Human complement C1s enzyme (Homo sapiens, UniProt P09871)       > 1000 nM
3  CO[C@H]1C[C@@H](C(=O)CNC(=O)c2ccc(Oc3ccccc3)cc2)[C@H](C(=O)NCc2cc(C(=N)N)cs2)C1 [Compound 35]  Human complement C1s enzyme (Homo sapiens, UniProt P09871)  100 to 1000 nM
4  NCCCCCCNC(=O)[C@@H]1CC2(CN1C(=O)CNC(=O)c1ccc(Oc3ccccc3)cc1)OCCO2 [Compound 27]  Human complement C1s enzyme (Homo sapiens, UniProt P09871)       > 1000 nM

Reference for the values: patent US12479856B2
